system: HeLa; experiment: Cytotoxicity against human HeLa cells after 72 hrs by MTT assay; type: functional
Doc: threshold 30 nmol (exclusive). Items with ED50 beneath it return Yes; others return No.

In the record for CC(C)=CCC(O[C@H]1OC[C@@H](O)[C@@H](O)[C@H]1O)/C(C)=C/C=C/C(C)=C1\C(=O)C[C@H]2[C@@]3(C)CC[C@@H](O)C(C)(C)[C@@H]3CC[C@]12C (stereo partly specified) , is ED50 less than 30 nmol?
Yes

Again, but for CC(/C=C/C(O)C(C)(C)O)=C\C=C\C(C)=C1\C(=O)C[C@H]2[C@@]3(C)CC[C@@H](O)[C@](C)(C(=O)O)[C@@H]3CC[C@]12C (stereo partly specified)
Yes

Again, but for CCOC(/C=C/C(C)=C/C=C/C(C)=C1/C(=O)C[C@H]2[C@@]3(C)CC[C@@H](O)[C@](C)(C(=O)O)[C@@H]3CC[C@]12C)C(C)(C)O (stereo partly specified)
No

Again, but for CC(=O)O[C@@H]1CC[C@@]2(C)[C@@H](CC[C@]3(C)/C(=C(C)/C=C/C=C(\C)C(CC=C(C)C)O[C@@H]4OC[C@H](O)[C@H](O)[C@@H]4O)C(=O)C[C@@H]23)C1(C)C (stereo partly specified)
Yes

Again, but for COC(/C=C/C(C)=C/C=C/C(C)=C1/C(=O)C[C@H]2[C@@]3(C)CC[C@@H](O)[C@](C)(C(=O)O)[C@@H]3CC[C@]12C)C(C)(C)O (stereo partly specified)
No

Again, but for C/C(C(=O)/C=C/C(C)=C/C=C/C(C)(C)O)=C1/C(=O)C[C@H]2[C@@]3(C)CC[C@H](O)C(C)(C)[C@@H]3CC[C@]12C
No
